Cited source: patent US20260184687A1

Measured IC50 by item
Biological target: MALT1-GS-Ub (6-His-hMALT-1 residues 339-715 fused to ubiquitin) (Homo sapiens);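 further: in vitro MALT1 protease assay: enzyme preincubated with compound 30 min at room temperature, then cleavage of fluorogenic Ac-LVSR-AMC substrate (100 µM) followed by fluorescence every 15 min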
Test: biochemical
The reply should be a number in nM, with the unit left off.

Please list IC50 recorded for the compound CN(C(=O)c1cocn1)[C@@H](c1ccc(NC2Cc3ccccc3C2(C)C)cc1)C(F)(F)F (single isomer, unassigned) [Example 26] 360

Provide IC50 value for the following compound: CN(C(=O)CCN1CCCC1=O)[C@@H](c1ccc(NC2Cc3ccccc3C2(C)C)cc1)C(F)(F)F (single isomer, unassigned) [Example 48] 140

====

Biological target: FL hMALT1 enzyme (Homo sapiens)
Test: biochemical
Measurement Name: pIC50
Please keep in mind that pIC50 is minus log10 of the molar concentration; only the number is needed.

Solved entries (count: 5):
>  <Compound>
CN(C(=O)C1CC2(CCN2CCO)C1)[C@@H](c1ccc(NC2Cc3ccccc3C2(C)C)cn1)C(F)(F)F (single isomer, unassigned) [Example 248]

>  <pIC50>
6.85

$$$$
>  <Compound>
CN(C(=O)[C@@H]1CC[C@H](NC(=O)C(F)(F)F)C1)[C@@H](c1ccc(N[C@H]2Cc3ccccc3C2(C)C)cn1)C(F)(F)F

>  <pIC50>
6.82

$$$$
>  <Compound>
CN(C(=O)CN1CC(=O)NC1=O)[C@@H](c1ccc(NC2Cc3ccccc3C2(C)C)cn1)C(F)(F)F (single isomer, unassigned) [Example 212]

>  <pIC50>
6.89

$$$$
>  <Compound>
CN(C(=O)C1CCS(=O)(=O)CC1)[C@@H](c1ccc(NC2Cc3ccc(F)c(Cl)c3C2)cn1)C(F)(F)F (single isomer, unassigned) [Example 265]

>  <pIC50>
7.49

$$$$
>  <Compound>
CN(C(=O)[C@H]1C[C@H](N(C)C)C1)[C@@H](c1ccc(NC2Cc3ccccc3C2(C)C)cn1)C(F)(F)F (single isomer, unassigned) [Example 113]

>  <pIC50>
7.17

$$$$

Now look at this entry.
Entry CN(C(=O)C1CNC(=O)O1)[C@@H](c1ccc(N[C@@H]2Cc3ccccc3C2(C)C)cn1)C(F)(F)F (single isomer, unassigned) [Example 110] needs its pIC50 filled in; supply it. 7.80

====

Listed below: pIC50 values for each entry.
Biological target: FL hMALT1 enzyme (Homo sapiens, UniProt Q9UDY8)
Test: biochemical
Friendly reminder that pIC50 comes from taking -log10 of the concentration in mol/L.

Worked set:
>  <Compound>
CNC(=O)N1CC(C(=O)N(C)[C@@H](c2ccc(NC3Cc4ccccc4C3(C)C)cn2)C(F)(F)F)C1 (single isomer, unassigned) [Example 228]

>  <Study Target>
FL hMALT1 enzyme (Homo sapiens, UniProt Q9UDY8)

>  <pIC50>
7.24

$$$$
>  <Compound>
CN(C(=O)C1CCS(=O)(=O)CC1)[C@@H](c1ccc(NC2Cc3cc(F)cc(F)c3C2)cn1)C(F)(F)F (single isomer, unassigned) [Example 268]

>  <Study Target>
FL hMALT1 enzyme (Homo sapiens, UniProt Q9UDY8)

>  <pIC50>
5.47

$$$$

Note: attention shifts to another entry.
Identify measured pIC50 corresponding to CN(C(=O)C1CN(C(=O)C2CCO2)C1)[C@@H](c1ccc(NC2Cc3ccc(Cl)c(F)c3C2)cn1)C(F)(F)F (single isomer, unassigned) [Example 385] 6.89

====

Biological target: FL hMALT1 enzyme (Homo sapiens, UniProt Q9UDY8)
Sequence (Q9UDY8 1-824): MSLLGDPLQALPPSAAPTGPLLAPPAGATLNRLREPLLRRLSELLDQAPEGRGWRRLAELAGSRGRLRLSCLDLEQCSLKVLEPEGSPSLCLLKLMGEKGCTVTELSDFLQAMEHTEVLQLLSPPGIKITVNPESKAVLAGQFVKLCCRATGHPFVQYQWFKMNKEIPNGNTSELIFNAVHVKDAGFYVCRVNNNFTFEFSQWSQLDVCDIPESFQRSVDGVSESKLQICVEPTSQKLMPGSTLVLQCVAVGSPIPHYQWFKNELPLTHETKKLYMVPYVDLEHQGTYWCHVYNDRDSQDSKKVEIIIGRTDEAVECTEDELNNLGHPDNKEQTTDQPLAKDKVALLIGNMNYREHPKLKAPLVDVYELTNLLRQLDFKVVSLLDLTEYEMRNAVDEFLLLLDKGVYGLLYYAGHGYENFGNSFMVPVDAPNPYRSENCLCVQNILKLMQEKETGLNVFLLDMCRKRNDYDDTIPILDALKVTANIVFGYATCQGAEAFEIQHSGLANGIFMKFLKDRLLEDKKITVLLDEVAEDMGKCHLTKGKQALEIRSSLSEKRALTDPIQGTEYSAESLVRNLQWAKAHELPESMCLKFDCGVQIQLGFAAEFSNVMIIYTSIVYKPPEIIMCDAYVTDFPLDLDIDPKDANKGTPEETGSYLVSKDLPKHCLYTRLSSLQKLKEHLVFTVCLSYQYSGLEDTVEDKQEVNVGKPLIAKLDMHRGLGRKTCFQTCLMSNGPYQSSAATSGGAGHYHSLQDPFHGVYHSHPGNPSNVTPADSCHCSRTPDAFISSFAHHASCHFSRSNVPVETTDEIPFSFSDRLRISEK
Experiment: biochemical
Measurement Name: pIC50
Please express pIC50 as -log10 of the molar concentration.

>  <Compound>
CN(C(=O)[C@H]1C[C@]2(CCN2C)C1)[C@@H](c1ccc(NC2Cc3ccccc3C2(C)C)cn1)C(F)(F)F (single isomer, unassigned) [Example 158]

>  <pIC50>
6.36

$$$$

Fill in reported pIC50 for this entry: CC(=O)N[C@H]1CC[C@@H](C(=O)N(C)[C@@H](c2ccc(N[C@H]3Cc4ccccc4C3(C)C)cn2)C(F)(F)F)C1 7.15

Entry CN(C(=O)C1CCS(=O)(=O)CC1)[C@@H](c1ccc(NC2Cc3cc(Cl)cc(F)c3C2)cn1)C(F)(F)F (single isomer, unassigned) [Example 271] needs its pIC50 filled in; supply it. 5.48

Give pIC50 for CC(=O)NCC(=O)N(C)[C@@H](c1ccc(NC2Cc3ccccc3C2(C)C)cc1)C(F)(F)F (single isomer, unassigned) [Example 39] 6.77

Tell me its pIC50 given CN(C(=O)C1CCS(=O)(=O)CC1)[C@@H](c1ccc(NC2Cc3ccc(C4CC4)cc3C2)cn1)C(F)(F)F (single isomer, unassigned) [Example 308] as the entry. 5.85

Name the recorded pIC50 of the item CN(C(=O)C1CCNC(=O)C1)[C@@H](c1ccc(N[C@H]2Cc3ccc(Cl)cc3C2)cn1)C(F)(F)F (single isomer, unassigned) [Example 314] in your answer. 6.82

====

Molecular target: FL hMALT1 enzyme (Homo sapiens);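 further: Cell-free protease assay: enzyme preincubated with compound 30 min at room temperature, then cleavage of fluorogenic Ac-LVSR-AMC substrate (100 µM) tracked by fluorescence (ex 360/em 460 nm)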
Sequence (Q9UDY8 1-824): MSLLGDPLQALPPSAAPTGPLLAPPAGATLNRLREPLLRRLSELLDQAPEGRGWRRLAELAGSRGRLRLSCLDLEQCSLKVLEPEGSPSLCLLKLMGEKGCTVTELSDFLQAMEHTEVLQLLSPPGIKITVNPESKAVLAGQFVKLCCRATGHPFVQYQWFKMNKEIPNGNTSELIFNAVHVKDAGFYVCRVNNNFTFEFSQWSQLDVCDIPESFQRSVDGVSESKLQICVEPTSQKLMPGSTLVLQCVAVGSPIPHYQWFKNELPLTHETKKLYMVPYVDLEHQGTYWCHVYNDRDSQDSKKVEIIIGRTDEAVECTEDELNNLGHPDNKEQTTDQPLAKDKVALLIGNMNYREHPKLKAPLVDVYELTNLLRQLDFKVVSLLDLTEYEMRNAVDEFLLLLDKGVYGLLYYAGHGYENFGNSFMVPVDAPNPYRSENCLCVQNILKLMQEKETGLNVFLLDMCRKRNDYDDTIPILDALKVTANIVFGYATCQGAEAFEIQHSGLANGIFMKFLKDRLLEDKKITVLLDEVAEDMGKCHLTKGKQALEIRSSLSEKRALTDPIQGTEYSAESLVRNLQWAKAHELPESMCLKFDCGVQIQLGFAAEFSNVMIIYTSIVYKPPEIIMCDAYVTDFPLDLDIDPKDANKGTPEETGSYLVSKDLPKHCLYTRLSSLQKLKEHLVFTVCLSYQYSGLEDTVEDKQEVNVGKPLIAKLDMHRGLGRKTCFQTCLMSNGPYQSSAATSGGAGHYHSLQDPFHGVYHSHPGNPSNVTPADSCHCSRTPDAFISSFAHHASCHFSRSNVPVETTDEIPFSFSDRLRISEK
Experiment: biochemical
Measurement Name: pIC50
Please note pIC50 is a logarithmic value: minus log10 of concentration in mol/L. Answer with that number alone.

Check the records and state pIC50 for CN(C(=O)C1CNC1)C(c1ccc(NC2Cc3ccccc3C2(C)C)cn1)C(F)(F)F (single isomer, unassigned) [Example 84] 6.74

Tell me pIC50 reported for CN(C(=O)C1CN2CCC1CC2)[C@@H](c1ccc(NC2Cc3ccccc3C2(C)C)nc1)C(F)(F)F (single isomer, unassigned) [Example 121] 6.29

Return pIC50 (reported value) for this molecule: CN(C(=O)C1CC2(CCC(=O)N2)C1)[C@@H](c1ccc(NC2Cc3ccc(Cl)c(Cl)c3C2)cn1)C(F)(F)F (single isomer, unassigned) [Example 341] 7.82

Name the recorded pIC50 of the molecule listed here: CN(C(=O)c1cc[nH]c(=O)c1)[C@@H](c1ccc(NC2Cc3ccccc3C2(C)C)cc1)C(F)(F)F (single isomer, unassigned) [Example 21] 7.21
